Test system: CN0375-F725-PDC multi-cell spheroids, viability
procedure_text: Anticancer human tumor CN0375-F725-PDC patient-derived colon carcinoma cell line growth inhibition [TAK]
conditions: second compound 3 µM; first compound 1 µM; stronger effect = lower value
property: viability, T/C (%)
Just the number please, in %, no unit attached.

compound | number
Cc1nc(NC(=O)N2CCCC2C(N)=O)sc1-c1ccnc(C(C)(C)C(F)(F)F)c1 (centres undefined) + CC(C)NCC(C(=O)N1CCN(c2ncnc3c2C(C)CC3O)CC1)c1ccc(Cl)cc1 | 81.8

Form field: reported viability, T/C of CC(C)(C)c1nc(-c2cccc(NS(=O)(=O)c3c(F)cccc3F)c2F)c(-c2ccnc(N)n2)s1 + CC(C)NCC(C(=O)N1CCN(c2ncnc3c2C(C)CC3O)CC1)c1ccc(Cl)cc1
103

Form field: reported viability, T/C of CCCS(=O)(=O)Nc1ccc(F)c(C(=O)c2c[nH]c3ncc(-c4ccc(Cl)cc4)cc23)c1F + CC(C)NCC(C(=O)N1CCN(c2ncnc3c2C(C)CC3O)CC1)c1ccc(Cl)cc1
110

Form field: reported viability, T/C of COc1c(OCCCN2CCOCC2)ccc2c3n(c(=NC(=O)c4cnc(N)nc4)nc12)CCN3 + CC(C)NCC(C(=O)N1CCN(c2ncnc3c2C(C)CC3O)CC1)c1ccc(Cl)cc1
33

###

Test system: CN0375-F725-PDC multi-cell spheroids, viability
procedure_text: Anticancer human tumor CN0375-F725-PDC cell line growth inhibition [TAK]; active means viability on the fitted dose curve at most 10% of control; inactive means the rest;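 note: spheroids exposed to drugs for seven days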
conditions: second compound 30 µM; first compound 0.01 µM
Permitted responses: 1.0 = active, 0.0 = inactive

molecule | cat
COC1CC2CCC(C)C(O)(O2)C(=O)C(=O)N2CCCCC2C(=O)OC(C(C)CC2CCC(OCCO)C(OC)C2)CC(=O)C(C)C=C(C)C(O)C(OC)C(=O)C(C)CC(C)C=CC=CC=C1C (stereo not given) + CC(C)NCC(C(=O)N1CCN(c2ncnc3c2C(C)CC3O)CC1)c1ccc(Cl)cc1 | 0.0
COc1c(OCCCN2CCOCC2)ccc2c3n(c(=NC(=O)c4cnc(N)nc4)nc12)CCN3 + CC(C)NCC(C(=O)N1CCN(c2ncnc3c2C(C)CC3O)CC1)c1ccc(Cl)cc1 | 0.0

Write down the call the test reported for this molecule. Item: CC(C)CC(NC(=O)CNC(=O)c1cc(Cl)ccc1Cl)B1OC(=O)CC(CC(=O)O)(C(=O)O)O1 (stereo not given) + CC(C)NCC(C(=O)N1CCN(c2ncnc3c2C(C)CC3O)CC1)c1ccc(Cl)cc1
0.0

Write down the call the test reported for this molecule. Item: CC(C)n1nc(-c2ccc3oc(N)nc3c2)c2c(N)ncnc21 + CC(C)NCC(C(=O)N1CCN(c2ncnc3c2C(C)CC3O)CC1)c1ccc(Cl)cc1
0.0

Write down the call the test reported for this molecule. Item: CC(C)CC(NC(=O)C(Cc1ccccc1)NC(=O)c1cnccn1)B(O)O (stereo not given) + CC(C)NCC(C(=O)N1CCN(c2ncnc3c2C(C)CC3O)CC1)c1ccc(Cl)cc1
1.0

###

Tested on: CN0375-F725-PDC multi-cell spheroids, viability
procedure_text: Anticancer human tumor CN0375-F725-PDC cell line growth inhibition [TAK];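 note: spheroids exposed to drugs for seven days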
conditions: curve of first compound; second compound 3 µM
Reported IC50 by item:
Just the number please, in nM, no unit attached.

compound | system_name | IC50, nM
CC(C)CC(NC(=O)C(Cc1ccccc1)NC(=O)c1cnccn1)B(O)O (stereo not given) + CC(C)NCC(C(=O)N1CCN(c2ncnc3c2C(C)CC3O)CC1)c1ccc(Cl)cc1 | CN0375-F725-PDC multi-cell spheroids, viability | 7.86

Next compound, please.
Form field: reported IC50 of CC(C)CC(NC(=O)CNC(=O)c1cc(Cl)ccc1Cl)B1OC(=O)CC(CC(=O)O)(C(=O)O)O1 (stereo not given) + CC(C)NCC(C(=O)N1CCN(c2ncnc3c2C(C)CC3O)CC1)c1ccc(Cl)cc1
45.8

###

System: CN0375-F725-PDC multi-cell spheroids, viability
procedure_text: Anticancer human tumor CN0375-F725-PDC cell line growth inhibition [TAK];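 note: spheroids exposed to drugs for seven days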;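 for viability, T/C: 100% = DMSO vehicle control wells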
conditions: second compound 0.3 µM; first compound 1 µM; stronger effect = lower value
Reported viability, T/C by item:
Just the number please, in %, no unit attached.

Use these answered entries as a reference point.
compound | viability, T/C [%]
CCCS(=O)(=O)Nc1ccc(F)c(C(=O)c2c[nH]c3ncc(-c4ccc(Cl)cc4)cc23)c1F + CC(C)NCC(C(=O)N1CCN(c2ncnc3c2C(C)CC3O)CC1)c1ccc(Cl)cc1 | 120
CC(C)(C)c1nc(-c2cccc(NS(=O)(=O)c3c(F)cccc3F)c2F)c(-c2ccnc(N)n2)s1 + CC(C)NCC(C(=O)N1CCN(c2ncnc3c2C(C)CC3O)CC1)c1ccc(Cl)cc1 | 118
Cc1nc(NC(=O)N2CCCC2C(N)=O)sc1-c1ccnc(C(C)(C)C(F)(F)F)c1 (centres undefined) + CC(C)NCC(C(=O)N1CCN(c2ncnc3c2C(C)CC3O)CC1)c1ccc(Cl)cc1 | 82.1

Next compound, please.
Lab note: need viability, T/C for COc1c(OCCCN2CCOCC2)ccc2c3n(c(=NC(=O)c4cnc(N)nc4)nc12)CCN3 + CC(C)NCC(C(=O)N1CCN(c2ncnc3c2C(C)CC3O)CC1)c1ccc(Cl)cc1 on CN0375-F725-PDC multi-cell spheroids, viability, anyone have it?
34.7

###

Tested on: CN0375-F725-PDC multi-cell spheroids, viability
procedure_text: Anticancer human tumor CN0375-F725-PDC cell line growth inhibition [TAK];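 note: spheroids exposed to drugs for seven days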
conditions: curve of first compound; second compound 3 µM
Reported IC50 by item:
Just the number please, in µM, no unit attached.

Use these answered entries as a reference point.
molecule | property | number
Cn1cnc2c(F)c(Nc3ccc(Br)cc3Cl)c(C(=O)NOCCO)cc21 + CC(C)NCC(C(=O)N1CCN(c2ncnc3c2C(C)CC3O)CC1)c1ccc(Cl)cc1 | IC50 | 0.161
CC(=O)Nc1cccc(-n2c(=O)n(C3CC3)c(=O)c3c(Nc4ccc(I)cc4F)n(C)c(=O)c(C)c32)c1 + CC(C)NCC(C(=O)N1CCN(c2ncnc3c2C(C)CC3O)CC1)c1ccc(Cl)cc1 | IC50 | 0.00523

Form field: reported IC50 of COc1c(OCCCN2CCOCC2)ccc2c3n(c(=NC(=O)c4cnc(N)nc4)nc12)CCN3 + CC(C)NCC(C(=O)N1CCN(c2ncnc3c2C(C)CC3O)CC1)c1ccc(Cl)cc1
0.206

###

Tested on: CN0375-F725-PDC multi-cell spheroids, viability
procedure_text: Anticancer human tumor CN0375-F725-PDC cell line growth inhibition [TAK];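 note: spheroids exposed to drugs for seven days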
conditions: compound alone; run of 03/19/2020
pIC50: −log10 of the molar value.
property: pIC50

Lab note: need pIC50 for CC(C)NCC(C(=O)N1CCN(c2ncnc3c2C(C)CC3O)CC1)c1ccc(Cl)cc1 (stereo unspecified) on CN0375-F725-PDC multi-cell spheroids, viability, anyone have it?
< 4.52

###

Reported viability, T/C by item:
System: CN0375-F725-PDC multi-cell spheroids, viability
procedure_text: Anticancer human tumor CN0375-F725-PDC cell line growth inhibition [TAK];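 note: spheroids exposed to drugs for seven days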;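 for viability, T/C: 100% = DMSO vehicle control wells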
conditions: second compound 0.3 µM; first compound 0.001 µM; stronger effect = lower value
Just the number please, in %, no unit attached.

Use these answered entries as a reference point.
compound | unit_abbrev | viability, T/C
CC(C)CC(NC(=O)C(Cc1ccccc1)NC(=O)c1cnccn1)B(O)O (centres undefined) + CC(C)NCC(C(=O)N1CCN(c2ncnc3c2C(C)CC3O)CC1)c1ccc(Cl)cc1 | % | 99.5
CC(C)CC(NC(=O)CNC(=O)c1cc(Cl)ccc1Cl)B1OC(=O)CC(CC(=O)O)(C(=O)O)O1 (centres undefined) + CC(C)NCC(C(=O)N1CCN(c2ncnc3c2C(C)CC3O)CC1)c1ccc(Cl)cc1 | % | 104
COC1CC2CCC(C)C(O)(O2)C(=O)C(=O)N2CCCCC2C(=O)OC(C(C)CC2CCC(OCCO)C(OC)C2)CC(=O)C(C)C=C(C)C(O)C(OC)C(=O)C(C)CC(C)C=CC=CC=C1C (centres undefined) + CC(C)NCC(C(=O)N1CCN(c2ncnc3c2C(C)CC3O)CC1)c1ccc(Cl)cc1 | % | 95.1

Form field: reported viability, T/C of CC(C)n1nc(-c2ccc3oc(N)nc3c2)c2c(N)ncnc21 + CC(C)NCC(C(=O)N1CCN(c2ncnc3c2C(C)CC3O)CC1)c1ccc(Cl)cc1
102

###

Tested on: CN0375-F725-PDC multi-cell spheroids, viability
procedure_text: Anticancer human tumor CN0375-F725-PDC cell line growth inhibition [TAK];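 note: spheroids exposed to drugs for seven days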
conditions: curve of first compound; second compound 9.49 µM
Reported pIC50 by item:
# pIC50 is unitless: minus log10 of the molar concentration; print number only

Use these answered entries as a reference point.
compound | pIC50
Cc1nc(NC(=O)N2CCCC2C(N)=O)sc1-c1ccnc(C(C)(C)C(F)(F)F)c1 (stereo not given) + CC(C)NCC(C(=O)N1CCN(c2ncnc3c2C(C)CC3O)CC1)c1ccc(Cl)cc1 | 5.02
CC(C)n1nc(-c2ccc3oc(N)nc3c2)c2c(N)ncnc21 + CC(C)NCC(C(=O)N1CCN(c2ncnc3c2C(C)CC3O)CC1)c1ccc(Cl)cc1 | 7.12

Form field: reported pIC50 of CCCS(=O)(=O)Nc1ccc(F)c(C(=O)c2c[nH]c3ncc(-c4ccc(Cl)cc4)cc23)c1F + CC(C)NCC(C(=O)N1CCN(c2ncnc3c2C(C)CC3O)CC1)c1ccc(Cl)cc1
5.09

Form field: reported pIC50 of CC(=O)Nc1cccc(-n2c(=O)n(C3CC3)c(=O)c3c(Nc4ccc(I)cc4F)n(C)c(=O)c(C)c32)c1 + CC(C)NCC(C(=O)N1CCN(c2ncnc3c2C(C)CC3O)CC1)c1ccc(Cl)cc1
8.31

Form field: reported pIC50 of CC(C)CC(NC(=O)C(Cc1ccccc1)NC(=O)c1cnccn1)B(O)O (stereo not given) + CC(C)NCC(C(=O)N1CCN(c2ncnc3c2C(C)CC3O)CC1)c1ccc(Cl)cc1
8.23

Form field: reported pIC50 of CC(C)CC(NC(=O)CNC(=O)c1cc(Cl)ccc1Cl)B1OC(=O)CC(CC(=O)O)(C(=O)O)O1 (stereo not given) + CC(C)NCC(C(=O)N1CCN(c2ncnc3c2C(C)CC3O)CC1)c1ccc(Cl)cc1
7.51

Form field: reported pIC50 of COc1c(OCCCN2CCOCC2)ccc2c3n(c(=NC(=O)c4cnc(N)nc4)nc12)CCN3 + CC(C)NCC(C(=O)N1CCN(c2ncnc3c2C(C)CC3O)CC1)c1ccc(Cl)cc1
6.81

Form field: reported pIC50 of Cn1cnc2c(F)c(Nc3ccc(Br)cc3Cl)c(C(=O)NOCCO)cc21 + CC(C)NCC(C(=O)N1CCN(c2ncnc3c2C(C)CC3O)CC1)c1ccc(Cl)cc1
6.75
